system name: T1, RSV postfusion F (postF), subtype B (respiratory syncytial virus, subtype B)
T1 construct: also called F ΔFP; Postfusion subtype B
T1 sequence (P13843 26-109, chain 1 of 2): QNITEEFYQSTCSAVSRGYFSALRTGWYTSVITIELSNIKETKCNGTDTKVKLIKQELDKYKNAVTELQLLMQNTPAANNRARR
T1 sequence (P13843 147-513, chain 2 of 2): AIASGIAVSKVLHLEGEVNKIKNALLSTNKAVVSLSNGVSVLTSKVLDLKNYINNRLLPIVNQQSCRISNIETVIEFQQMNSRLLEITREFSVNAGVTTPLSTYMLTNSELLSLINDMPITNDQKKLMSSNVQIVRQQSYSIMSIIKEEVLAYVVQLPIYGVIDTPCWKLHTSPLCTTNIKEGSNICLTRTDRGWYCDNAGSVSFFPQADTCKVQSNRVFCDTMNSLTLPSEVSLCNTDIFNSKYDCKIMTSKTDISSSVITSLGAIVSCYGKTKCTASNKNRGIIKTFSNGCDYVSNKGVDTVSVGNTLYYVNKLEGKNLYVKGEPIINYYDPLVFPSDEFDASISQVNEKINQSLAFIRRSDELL
experimental details: BLI, IgG
# if measured Kd < 0.4 nM: true (1)  # else: false (0)

>>> group_label("ADI-20972 (antibody, V domains shown) VH: QVQLQQWGAGLLRPSETLSLTCAVSGGSFSGHYWSWIRQPPGKGLEWIGGINHSGNTNYSPSLRSRVTMSVDTSRNQFSLMLRSVTAADTAVYFCARNVPNLYGDYPRWFDPWGQGTLVTVSS VL: QSVLTQPASVSGSPGQSITISCTGTSSDVGGFNYVSWYQHHPGKAPKLMIYDVNNRPSGASNRFSGSKSGNTASLTISGLQAEDEADYYCSSYRSSDTLYVFGTGTKVTVL")
"false (0)"
>>> group_label("ADI-14416 (antibody, V domains shown, also called Ab 82) VH: QVQLVQSGAEVKKPGESLKISCKGSGDTFSRNWIGWVRQMPGKGLEWMGIIWPGDSDTRYRQFFQGQQGQVIISVDKSISTAYLQWSSLKASDTATYYCATSPYGLGSYYEHWGQGTLVTVSS VL: NFMLTQPHSLSDSPGKTVVISCTRSSGSIASNYVQWYQQRPGSAPTTVIYEDNQRPSGVPDRFSGSIDSSSNSASLTISGLKTEDEADYYCQSYDSSNPYVFGTGTKVTVL")
"true (1)"
>>> group_label("ADI-20989 (antibody, V domains shown) VH: EVQLLESGPGLVKPSGTLSLTCAVSGGSIINSNWWSWVRQSPGKGLEWIGDIYHSGSTTYNPSLKSRVTISVDRSKNQYSLRLTSVTAADTAVYYCAKIGPDNRSGPDYYYFMDVWGKGTTVTVSS VL: EIVLTQSPSSLPASVGDRVTISCRASQSISNYVYWYQQKPGKAPKLLIYAASSLQSGVPSRFSGSGSGTDFTLSISSLQFEDFATYFCQQSYSTPPTFGQGTKLEIK")
"false (0)"
>>> group_label("ADI-21062 (antibody, V domains shown, also called Ab 310) VH: EVQLLESGGGLVKPGGSLRLSCAASGFTFSDYDMIWVRQAPGKGLEWVSSISRGSDYIYYADSLKGRFTISRDNARNSVTLQMNSLRAGDTALYFCARAELLDSGGYYLYYFDHWGQGTLVTVSS VL: DIRMTQSPSSLSASVGDRVTITCRASQIIASYVNWYQKKPGKAPKVLIYAASRLQNGVPSRFSGSGSGTEFTLTISSLQPEDFATYYCQQSYSTSFTFGQGTKVDIK")
"false (0)"
>>> group_label("ADI-21011 (antibody, V domains shown) VH: QVQLQESGPGLVKPSETLSLSCTASGDSISDYYWSWIRQPPGKGLEWIGFVSDTWGTNYSPSLTSRVAISLDTSRSQVSLRLRSVTAADTAVYYCVRTHLYDRGGYYLYYFDYWGQGTLVTVSS VL: DIRMTQSPPSLSASVGDRVTITCRASQRIASYLNWYQQKPDTAPKLLIYAASNLQTGVPSRFSGSGSGTDFTLTISSLQPEDFATYYCQQSYSTPYTFGQGTKLEIK")
"true (1)"
